Values compiled from PubChem BioAssay AID1159580.

# assay-notes: chemical genetic growth profiling, strain panel (AID 1159580);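 also: tested at 20 µM; growth read once vehicle control cultures reached saturation at 30 °C; lower values mean less growth of the strain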
# condition: S. cerevisiae deletion strains, growth OD, locus YGR040W, strain KSS1, active compounds read low
Hit rate of the full screen: of about 5,500 compounds, about 2,000 (36%) were called active. Roughly 18% stayed inconclusive and do not appear here. The list shows a part of the results.
Friendly reminder: normalized growth below 0.9 is YES, at or above is NO.

{"structure-smiles": "O=C(Nc1ccccc1C(=O)O)OCC1c2ccccc2-c2ccccc21", "answer-label": "YES"}
{"structure-smiles": "CCn1nc(C)cc1C(=O)Sc1cccc(Br)c1", "answer-label": "YES"}
{"structure-smiles": "O=S(=O)(c1cc(Cl)ccc1Cl)N1CCc2ccccc2C1", "answer-label": "NO"}
{"structure-smiles": "O=c1[nH][nH]c(=O)n1CCCc1cc2cccc3ccc4cccc1c4c32", "answer-label": "NO"}
{"structure-smiles": "CN(C)/C=C1\\CSc2ccc(Cl)cc2C1=O", "answer-label": "YES"}
